test: Parallel artificial membrane permeability assay; format: in vitro ADME; conditions: pH 7.4
PAMPA (10^−6 cm/s) by entry:

Field: example entries. Status: answers known.
CCc1cccc(CC)c1-n1c(C=C(C)C)c(C(=O)N2CCNCC2)cc(-c2nc(-c3ccc(Cl)cc3)cs2)c1=O; 225 10^−6 cm/s
CCc1cccc(CC)c1-n1c(CC(C)C)c(C(=O)N2CCNCC2)cc(-c2nc(-c3ccc(Cl)cc3)cs2)c1=O; 16 10^−6 cm/s
CCc1cccc(CC)c1-n1c(CC2CC2)c(C(=O)N2CCNCC2)cc(-c2nc(-c3ccc(Cl)cc3)cs2)c1=O; 43 10^−6 cm/s
CCc1cccc(CC)c1-n1c(C=C(C)C)c(C(=O)N2C[C@H]3CC[C@@H](C2)N3)cc(-c2nc(-c3ccc(Cl)cc3)cs2)c1=O; 89 10^−6 cm/s
CCc1cccc(CC)c1-n1c(C=C(C)C)c(C(=O)N2CCNC(=O)C2)cc(-c2nc(-c3ccc(Cl)cc3)cs2)c1=O; 275 10^−6 cm/s

Turning now to a further record.
Retrieve PAMPA (10^−6 cm/s) measured for CCc1ccc(OC)cc1-n1c(C=C(C)C)c(C(=O)N2CCNCC2)cc(-c2nc(-c3ccc(Cl)cc3)cs2)c1=O (mixture of isomers) and print it. 549 10^−6 cm/s

* * *

assay: PK/PD in U87 R132H mIDH1 xenograft mouse model; assay type: in vivo; conditions: female, athymic nude (nu/nu NCr), mouse, in vivo, po, 30 mg/kg
quantity-kind: concentration at 24 h (nM)
Entry rule: numbers only, all in nM.

Retrieve concentration at 24 h measured for N#Cc1ccnc(N2C(=O)CC[C@H]2C(=O)N(c2cncc(F)c2)[C@H](C(=O)NC2CC(F)(F)C2)c2ccccc2Cl)c1 [AG-120] and print it. 1600

* * *

assay: Kinetic solubility assay; type: physicochemical; settings: phosphate buffer, pH 7.4
quantity-kind: solubility at 6 h

Retrieve solubility at 6 h measured for CCc1cccc(CC)c1-n1c(C=C(C)C)c(C(=O)N2CCNC(C)C2)cc(-c2nc(-c3ccc(Cl)cc3)cs2)c1=O (stereo not shown) [Compound 99] and print it. < 1 µg/mL

* * *

assay: Parallel artificial membrane permeability assay; assay type: in vitro ADME; settings: PAMPA, pH 7.4, PAMPA (10^−6 cm/s)
quantity-kind: Papp at 30 min, 0.05 mM (×10⁻⁶ cm/s)
Entry rule: numbers only, all in ×10⁻⁶ cm/s.

Retrieve Papp at 30 min, 0.05 mM measured for CCc1cccc(CC)c1-n1c(C=C(C)C)c(C(=O)N2CCNC(C)C2)cc(-c2nc(-c3ccc(Cl)cc3)cs2)c1=O (stereo not shown) [Compound 99] and print it. 213

* * *

test: Single time point rat liver microsome stability assay; type: in vitro ADME; settings: rat liver microsomes, pH 7.4
quantity-kind: half-life at 1 μM (min)
Entry rule: numbers only, all in min.

Retrieve half-life at 1 μM measured for CCc1cccc(CC)c1-n1c(C=C(C)C)c(C(=O)N2CCNC(C)C2)cc(-c2nc(-c3ccc(Cl)cc3)cs2)c1=O (stereo not shown) [Compound 99] and print it. 25

* * *

biological target: IDH1 R132H (Homo sapiens, UniProt O75874, R132H); assay: diaphorase/resazurin-coupled mIDH1 R132H enzyme assay; format: biochemical; conditions: R132H and R132C mIDH1; Table 2 is an image
Sequence (O75874 whole entry R132H): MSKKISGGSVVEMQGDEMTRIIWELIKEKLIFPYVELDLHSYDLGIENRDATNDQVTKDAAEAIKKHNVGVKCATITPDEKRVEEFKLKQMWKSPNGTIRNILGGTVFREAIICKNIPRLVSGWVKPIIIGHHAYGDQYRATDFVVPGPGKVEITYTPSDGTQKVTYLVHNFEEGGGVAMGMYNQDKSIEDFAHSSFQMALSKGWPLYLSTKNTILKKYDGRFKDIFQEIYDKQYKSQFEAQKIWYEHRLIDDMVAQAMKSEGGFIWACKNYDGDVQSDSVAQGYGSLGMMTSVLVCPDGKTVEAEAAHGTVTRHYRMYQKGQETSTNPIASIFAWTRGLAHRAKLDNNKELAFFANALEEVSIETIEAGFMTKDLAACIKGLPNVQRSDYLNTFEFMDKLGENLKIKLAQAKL
quantity-kind: mIDH1 inhibitory activity

COc1ccc(OC)c(-n2cccc(-c3nc(-c4ccc(Cl)cc4)cs3)c2=O)c1; completely inactive
COc1ccc(OC)c(-n2c(C)ccc(-c3nc(-c4ccc(Cl)cc4)cs3)c2=O)c1; completely inactive

* * *

experiment: Parallel artificial membrane permeability assay; format: in vitro ADME; conditions: pH 7.4
quantity-kind: PAMPA (10^−6 cm/s)

Field: example entries. Status: answers known.
CCc1cccc(CC)c1-n1c(C=C(C)C)c(C(=O)N2CCNC(C(=O)O)C2)cc(-c2nc(-c3ccc(Cl)cc3)cs2)c1=O (centres unmarked); <1 10^−6 cm/s
CCc1cccc(CC)c1-n1c(CC2CCNC2)c(C(=O)N2CCNCC2)cc(-c2nc(-c3ccc(Cl)cc3)cs2)c1=O (centres unmarked); 24 10^−6 cm/s
CCCc1c(C(=O)N2CCNCC2)cc(-c2nc(-c3ccc(Cl)cc3)cs2)c(=O)n1-c1c(CC)cccc1CC; 134 10^−6 cm/s
CCc1cccc(CC)c1-n1c(C=C(C)C)c(C(=O)N2CCNC3(CC3)C2)cc(-c2nc(-c3ccc(Cl)cc3)cs2)c1=O; 48 10^−6 cm/s

Turning now to a further record.
Retrieve PAMPA (10^−6 cm/s) measured for CCc1cccc(CC)c1-n1c(C=C(C)C)c(C(=O)N2CCNCC2C)cc(-c2nc(-c3ccc(Cl)cc3)cs2)c1=O (centres unmarked) and print it. 40 10^−6 cm/s

* * *

biological target: IDH1 R132H (Homo sapiens, UniProt O75874, R132H); test: diaphorase/resazurin-coupled mIDH1 R132H enzyme assay; assay type: biochemical; settings: IDH1 R132H IC50(μM) ± SD, average of N = 3; reported only where ≥75% inhibition at 38 μM
quantity-kind: IC50 (µM)

CCc1ccc(OC)cc1-n1c(C=C(C)C)c(C(=O)N2CCNCC2)cc(-c2nc(-c3ccc(Cl)cc3)cs2)c1=O (single isomer, unassigned) [(−)-118]; 0.42

a = CCc1ccc(Cl)cc1-n1c(C=C(C)C)c(C(=O)N2CCNCC2)cc(-c2nc(-c3ccc(Cl)cc3)cs2)c1=O (single isomer, unassigned) [(−)-119]
b = CCOc1ccccc1-n1c2c(cc(-c3nc(-c4ccc(Cl)cc4)cs3)c1=O)C(=O)CC(C)(C)C2
Could you tell me which of a and b has the lower IC50 reading? Reply briefly: the label of your chosen item. a
(a: 0.25 µM, b: 0.51 µM)

* * *

molecular target: IDH1 R132C (Homo sapiens, UniProt O75874, R132C); assay: diaphorase/resazurin-coupled mIDH1 R132C enzyme assay; type: biochemical; details: relative to compound 87
Sequence (O75874 whole entry R132C): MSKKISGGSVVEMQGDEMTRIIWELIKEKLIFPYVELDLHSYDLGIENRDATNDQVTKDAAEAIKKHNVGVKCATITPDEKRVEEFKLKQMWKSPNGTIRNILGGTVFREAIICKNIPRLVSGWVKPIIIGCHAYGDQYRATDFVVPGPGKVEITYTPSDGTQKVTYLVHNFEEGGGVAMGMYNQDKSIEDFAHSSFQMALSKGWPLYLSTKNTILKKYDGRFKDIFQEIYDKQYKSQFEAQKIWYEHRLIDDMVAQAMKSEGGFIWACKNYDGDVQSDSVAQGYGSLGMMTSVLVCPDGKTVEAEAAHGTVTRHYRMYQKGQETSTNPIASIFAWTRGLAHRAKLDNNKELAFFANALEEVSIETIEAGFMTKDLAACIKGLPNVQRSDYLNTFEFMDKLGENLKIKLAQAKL
quantity-kind: IDH1 R132C IC50 Fold improvement over 87 (fold)

CCc1cccc(CC)c1-n1c(CC2CC2)c(C(=O)N2CCNCC2)cc(-c2nc(-c3ccc(Cl)cc3)cs2)c1=O [Compound 93]; 31
CCc1cccc(CC)c1-n1c(CC2CCNC2)c(C(=O)N2CCNCC2)cc(-c2nc(-c3ccc(Cl)cc3)cs2)c1=O (centres unmarked) [Compound 98]; 12
CCCc1c(C(=O)N2CCNCC2)cc(-c2nc(-c3ccc(Cl)cc3)cs2)c(=O)n1-c1c(CC)cccc1CC [Compound 89]; 15

P = CCc1cccc(CC)c1-n1c(CC(C)C)c(C(=O)N2CCNCC2)cc(-c2nc(-c3ccc(Cl)cc3)cs2)c1=O [Compound 91]
Q = CCc1cccc(CC)c1-n1c(C=C(C)C)c(C(=O)N2CCNCC2)cc(-c2nc(-c3ccc(Cl)cc3)cs2)c1=O [Compound 92]
Could you tell me which of P and Q has the lower IDH1 R132C IC50 Fold improvement over 87 reading? Reply briefly: the label of your chosen item. P
(P: 13 fold, Q: 26 fold)

* * *

test: PK/PD in U87 R132H mIDH1 xenograft mouse model; assay type: in vivo; settings: female, athymic nude (nu/nu NCr), mouse, in vivo, po, 30 mg/kg
quantity-kind: concentration at 48 h (nM)
Entry rule: numbers only, all in nM.

Retrieve concentration at 48 h measured for N#Cc1ccnc(N2C(=O)CC[C@H]2C(=O)N(c2cncc(F)c2)[C@H](C(=O)NC2CC(F)(F)C2)c2ccccc2Cl)c1 and print it. 770

* * *

test: Mouse pharmacokinetic study; format: in vivo; details: male, CD1, mouse, brain/plasma, po, 30 mg/kg
quantity-kind: Kp
Enter the number alone.

Retrieve Kp measured for CCc1ccc(Cl)cc1-n1c(C=C(C)C)c(C(=O)N2CCNCC2)cc(-c2nc(-c3ccc(Cl)cc3)cs2)c1=O (single isomer, unassigned) [(+)-119] and print it. 0.28

These entries and their values trace back to paper PMC8968748.
